Target: T1, mouse tenascin-C rCd4-His-FBG (rat; mouse, UniProt P05540 207-392, limits assumed)
T1 construct: domain: domains 3 and 4; C-terminal FBG fusion; biotinylated in the ELISA screen; also called Mu TNC; mouse TNC rCd4-His-FBG; not shown: 6His tag
T1 sequence (chain (part 1 of 2)): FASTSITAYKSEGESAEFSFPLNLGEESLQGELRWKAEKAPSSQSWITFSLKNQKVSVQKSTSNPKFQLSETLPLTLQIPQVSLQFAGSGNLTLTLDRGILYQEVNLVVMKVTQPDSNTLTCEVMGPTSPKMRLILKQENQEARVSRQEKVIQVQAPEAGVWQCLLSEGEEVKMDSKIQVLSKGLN
T1 sequence (chain (part 2 of 2)): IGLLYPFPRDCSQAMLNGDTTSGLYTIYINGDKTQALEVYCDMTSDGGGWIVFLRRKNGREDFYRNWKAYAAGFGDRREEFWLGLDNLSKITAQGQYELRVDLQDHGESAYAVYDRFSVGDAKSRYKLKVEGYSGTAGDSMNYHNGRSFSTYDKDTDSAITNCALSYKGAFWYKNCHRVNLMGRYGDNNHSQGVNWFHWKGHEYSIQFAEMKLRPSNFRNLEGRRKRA
Assay: SPR off-rate screen, captured IgG4 supernatant, 25 C
Readout: koff (s⁻¹)
Give the value, in units of s⁻¹, as a plain number.

Binder: 160_01_H4 human IgG4 (antibody, V domains shown, human IgG4 with hinge S241P; also called Antibody 160 01 H4 (derived from 2A5)) VH: EVRLVQSGAEVKKPGASVKVSCKVSGYTLTELSMHWVRQAPGKGLEWMGGFDPEDGETIYAQKFQGRVTMTEDTSTDTAYMELSSLRSEDTAVYYCATGRFVWEALTYWGQGTLVTVSS VL: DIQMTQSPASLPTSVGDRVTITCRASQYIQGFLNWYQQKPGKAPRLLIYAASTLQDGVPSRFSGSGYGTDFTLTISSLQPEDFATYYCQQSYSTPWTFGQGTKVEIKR
Recorded Value: 0.0171
//
Binder: 162_02_C3 human IgG4 (antibody, V domains shown, human IgG4 with hinge S241P; also called Antibody 162 02 C3 (derived from 2A5)) VH: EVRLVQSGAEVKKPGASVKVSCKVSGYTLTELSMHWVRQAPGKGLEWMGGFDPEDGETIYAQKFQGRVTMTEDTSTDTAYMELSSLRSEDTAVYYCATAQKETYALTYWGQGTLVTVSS VL: DIQMTQSPASLPTSVGDRVTITCRASQYIQGFLNWYQQKPGKAPRLLIYAASTLQDGVPSRFSGSGYGTDFTLTISSLQPEDFATYYCMQHYDGPWTFGQGTKVEIKR
Recorded Value: 0.002
//
Binder: 160_01_G2 human IgG4 (antibody, V domains shown, human IgG4 with hinge S241P; also called Antibody 160 01 G2 (derived from 2A5)) VH: EVRLVQSGAEVKKPGASVKVSCKVSGYTLTELSMHWVRQAPGKGLEWMGGFDPEDGETIYAQKFQGRVTMTEDTSTDTAYMELSSLRSEDTAVYYCATYTLDNMALTYWGQGTLVTVSS VL: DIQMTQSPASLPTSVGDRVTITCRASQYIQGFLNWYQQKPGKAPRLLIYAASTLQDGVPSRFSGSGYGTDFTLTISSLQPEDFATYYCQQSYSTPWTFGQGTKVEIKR
Recorded Value: 1.39e-05

Prompt: Would you mind telling me what koff value was observed for 160_01_D6 human IgG4 (antibody, V domains shown, human IgG4 with hinge S241P; also called Antibody 160 01 D6 (derived from 2A5)) VH: EVRLVQSGAEVKKPGASVKVSCKVSGYTLTELSMHWVRQAPGKGLEWMGGFDPEDGETIYAQKFQGRVTMTEDTSTDTAYMELSSLRSEDTAVYYCATAQADPHLFTYWGQGTLVTVSS VL: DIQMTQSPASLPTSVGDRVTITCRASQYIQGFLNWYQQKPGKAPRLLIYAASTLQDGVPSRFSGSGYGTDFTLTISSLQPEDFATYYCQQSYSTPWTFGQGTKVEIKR ?
Completion: 0.0559

Prompt: Would you mind telling me what koff value was observed for 165_13_D1 human IgG4 (antibody, V domains shown, human IgG4 with hinge S241P) VH: QVQLVESGGGLVQPGRSLRLSCAASGFTFDDYAMHWVRQAPGKGLEWVSGISGSGGSTYYADSVKGRFTISRDNAKNSLYLQMNSLRAEDTALYYCAKGTRGEGDTFDIWGQGTMVTVSS VL: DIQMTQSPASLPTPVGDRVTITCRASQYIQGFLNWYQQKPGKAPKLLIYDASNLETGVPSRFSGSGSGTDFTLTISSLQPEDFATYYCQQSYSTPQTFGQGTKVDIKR ?
Completion: 3.9e-06
